- Tested on: K4 kissing-loop RNA reporter;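 further: bound reporter read as fluorescence of individual clusters on recovered sequencing chips by microscopy, with normalized cluster intensities fitted with a binding model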
- assay-comment: apparent KD of K4 kissing-loop reporter; higher = weaker reporter binding
- details: Eterna round: R107; input ligand: none
quantity-name: apparent KD of K4 kissing-loop reporter (µM)

| query-sequence | quantity-name | observed-value |
| --- | --- | --- |
| GGAUUGCCAGUGAUGUUGGCAUAAACUGAAGGAGCGCGUGAAAACGCAGGUAGGUCGCAGAACCUUGCCAACUAUUUUAUUUACC [Ex Arginine A K4 23] | apparent KD of K4 kissing-loop reporter | 0.0979 |
| UAAGAGGACCACUGCGAGAGUCCUCGAAUACGAGGACCGGUACGGCCGCCACUCGAUAAUUUGCAGUGAUGUUGCAAGUAAGAAU [BrourdMod 6 - Jieux - Same State Tryptophan A] | apparent KD of K4 kissing-loop reporter | 0.0824 |
| AAACGUUGGUGCGAUACCAGCUUGAUCGGUAAACGAUCUACUGGAGUGAUGUUCCUAAAUAGCCCUUGGCAGCGCACCGACGAAA [MAT - Same State Theophlline B - Mod of Eli - D8] | apparent KD of K4 kissing-loop reporter | 0.169 |
| AACUUGUUUGGAGGAUAUUCUUUAUUCGACAUAACCUUCUAUAAGGUGCAGUGAUGUUGCAAUAUAGGAGAAGGUCGAGUGAGAA [Exclusion FMN B Gf 16] | apparent KD of K4 kissing-loop reporter | 0.206 |
| UUCCACCGAGAAGGAUAUUAUGCUGGACUUGUUUAAGUGUUAAAUAGUGAUGUUAUUUGAUCGGAAUAAGAAGGUCUCAAGUUGA [theeternabot_sameState_KL_FMN_B_44] | apparent KD of K4 kissing-loop reporter | 0.145 |

* * *

- Tested on: MS2 coat protein
- assay-comment: apparent KD of MS2 coat protein; designed switch direction (-1 OFF switch, 1 ON switch): -1; higher = weaker reporter binding
- details: Eterna round: R95; input ligand: FMN 200 uM
Listed here: items and their measured apparent KD of MS2 coat protein.

| query-sequence | tested-target | apparent KD of MS2 coat protein (nM) |
| --- | --- | --- |
| GUAAAAAAAAAGGAUAUCGAACUUAUUAUUUAACGAGAAGGAUGAACAUGAGGAUCACCCAUGUGGUAUCAUGG [test] (puzzle: Exclusion 6) | MS2 coat protein | 92.3 |
| UUUAAUUUUUUUUUUUUACAAGCUUUUUGCUCGUCUUAUACAUGAGGAUCACCCAUGUGGGUAGAGGGUAAAUUAUC [JMF 82] (puzzle: Sensor v3, turn-off variant 2) | MS2 coat protein | 15.1 |
| CUCUUGUUAGGAUAUCAAACCAGCGGCGGAACCGCUGGUAGUGAGAAGGGACAUGAGGAUCACCCAUGUAAGAA [Bige] (puzzle: Exclusion 4) | MS2 coat protein | 108 |
| AGGCGUGCUGAGGAUAUACUACCGGGUGCGAUAGUAGAAGGUAGCACAUGAGGAUCACCCAUGUGGUCAGAUGC [Qureaor] (puzzle: Exclusion 6) | MS2 coat protein | 56.3 |
| UCAUACGAUGAGGAUAUCUCCGUUAAAGUAUGUAGAGAAGGCGUUACAUGAGGAUCACCCAUGUUUGUGGGCAG [Ex-6 Malc#9] (puzzle: Exclusion 6) | MS2 coat protein | 223 |
| GGAUAAGGCGAGGAUAUCCAGAAACCCGACAAAGGAGAAGGCGCAACAUGAGGAUCACCCAUGUGGGUGCAUGU [Xeaormara] (puzzle: Exclusion 6) | MS2 coat protein | 1080 |
| UAGGUGUGAGGAUAUGGUAAAGAUAAGAUGAUGAAAGAACUCCAGAAGGCACAUGAGGAUCACCCAUGUAGAUA [Mat - Exclusion 4 - Mod of JL - D31] (puzzle: Exclusion 4) | MS2 coat protein | 34.9 |
| ACAAGCUUUUUGUUCGUCUUAUAAUAAUAAAUAAAUAUAACAUGAGGAUCACCCAUGUUAAGAAGACGGCCUCAUGU [Sesor Array 21 - Jieux - Sensor v3, turn-off variant 2] (puzzle: Sensor v3, turn-off variant 2) | MS2 coat protein | 82.2 |
| ACAAGCUUUUUGUUCGUCUUAUACACUCCUAAUAAGACAACAUGAGGAUCACCCAUGUAACAAAUAAGAACUCAUGU [Sesor Array 5 - Jieux - Sensor v3, turn-off variant 2] (puzzle: Sensor v3, turn-off variant 2) | MS2 coat protein | 75 |
| GAGUGACAUGAGGAUCACCCAUGUGAGGAUAUCGGACGGACCAAAUUAACAACCACCGCGAGAAGGCACAUCGG [Exclusion 1 V21] (puzzle: Exclusion 1) | MS2 coat protein | 58.4 |

* * *

Reported apparent KD of MS2 coat protein values follow for various sequences
- Tested on: MS2 coat protein
- assay-comment: apparent KD of MS2 coat protein; higher = weaker reporter binding
- details: Eterna round: R107; input ligand: theophylline 20 uM

| query-sequence | unit-of-measurement | apparent KD of MS2 coat protein |
| --- | --- | --- |
| ACAUGAGGAUCACCCAUGUAUUACCGGGAAGGAGCGGCCGCAAGGCCAGGUAGGUCGCUCGGUGUCGUGCUGUAAAGCACGACAA [#1 Same State - Arginine A Attempt #29 (HarryS)] | nM | 16.7 |
| GGGCGCUAUCCCGCGAGGGAUAGCGUUCUUCGAGGACCGGUACGGCCGCCACUCGAACGAGUGGUGACAUGAGGAUCACCCAUGU [Paa] | nM | 75 |
| AAUAACUUGAGGAUCACCCAAGUAAAAGAUACCAGAGUGAUGAUCCUCCCUUGGCAGCUUAACGCUGAUUGAUUACAAUCAGCGA | nM | 182 |
| CGGUCGGUCGGCCGGUGAUUAUGGGAUGAAGGAGCGUGGGAAGCUACAGGUAGGUCGCAUCCGAAACACGAGGAUCACCCGUGUU [SSArg A #25Alt-Ms2 Mod] | nM | 38.3 |
| AAACAUGAGGAUCACCCAUGUUCUCGUGUCCGAGGACCGGUACGGCCGCCACUCGGUUCUCGCGAGGAUGGUCAAAGACUAUCCA [Omei Trp A SS B v6] | nM | 53.6 |
| GAACAACAUGAGGAUCACCCAUGUCAGGAUACCAGUCGAAAGUCAGACCCUUGGCAGCCUAUCACUCAGCAAAUAGAUAGUACAA [theeternabot_sameState_MS2_Theo_A_12] | nM | 20.4 |
| GCCUCCAGCCGAAGGAGCGCUAGAAGGUGACAUGAGGAUCACCCAUGUGUGUGAUGUGGCUAGCAGGUAGGUCGCGGAGGAGGUA [Exclusion - Arginine B (Freestyle 21)] | nM | 134 |
| AUACAUGAGGAUCACCCAUGUCACACAGAAGGAGCGGCUGUAGAGCCAGGUAGGUCGCUGUACUGAAAAUACUUCAUACUCAUGU [#30 Exclusion - Arginine A] | nM | 43 |
| CACAUGAGGAUCACCCAUGUCUGAACUGAAGGAGCGCUAAACAAGGCAGGUAGGUCGCGGAAUCCCGGGUGCAUAUGCACCCGGG [9.aA] | nM | 23.2 |
| GUUUAAAGGUCGGCCGCCACUGUAGGAUGUGUUCUUUCACAUGAGGAUCACCCAUGUUGUUAUUAUAGGACCGGGAUUUUAGGAC [39MS split4] | nM | 33.1 |
| CUUGAGACAUGAGGAUCACCCAUGUCCGAAGGAGCGUGCGAAAGCACAGGUAGGUCGCGGACGUGAGGAUCUCCCAUGUGAGCGA [#25 Exclusion - Arginine A] | nM | 28.2 |
| AUGUCGUUGAAUACAGCGGCAUGGAGUGAUACCAGAAUGAUCAAAUUCCCUUGGCAGCAUCACAUGAGGAUCACCCAUGUUCGAU [SSTheo A #16] | nM | 33.2 |
| AGAGUUAGACAAAAGUCUAGCUCACCAGAAGGAGCGUCCGAAAGGACAGGUAGGUCGCUGGUGCAUGAGGAUCACCCAUGUUCCU [ArgAS 20 #OpenEnded #AlternativeMS2] | nM | 211 |
| CGAUCUUUCGAAAGAAGGAUCGAGUCUGAUACCAGAGACGAAAGUCUCCCUUGGCAGCAGUGCCAACAUGAGGAUCACCCAUGUA [Theophylline A 9] | nM | 26.3 |
| CUAUAAGUACCGGUCCUCAGAUCCUCAUGACGAGGACCGGUACGGCCGCCACUCGAAACAUGAGGAUCACCCAUGUAAUAAUAUU [Brourdmod10] | nM | 31.5 |
| ACAUUGCGCUCGGCCGCCACUGCCUUAUGAUUAUAAGGAUUAAUGAACAUGAGGAUCACCCAUGUCAGGACCGGGAGCGAACCAU [SSTryp B #6] | nM | 16 |
| GCCGGACUUUCGGCCGCCACUGAGAGAGUCGUGUGAACAUGAGGAUCACCCAUGUAAUAUAUAUACAGGACCGGGAGGGUUCGGC [4.S] | nM | 18.7 |
| UGUAUGUGAUCUGAUACCAGCUUUGAUAACCUGAGGAUCACCCUGGUAAAGGCGAAAGCCGGCCCUUGGCAGCAGAUCGCAUACU | nM | 56.1 |
| UGAAAGUAGGGAAGGAGCGCUACAACAUGAGGAUCACCCAUGUUAUGAGGAUCACCCGUGUGGCAGGUAGGUCGCCCAAAACAUG [#13 Same State - Arginine B] | nM | 46.7 |
| ACACGAAGCUGAAGGAGCGUGGUAUAAAUUUUUACAUGAGGAUCACCCAUGUUUCAUCAAUCACAGGUAGGUCGCAGAUGCGUGA [JR_SSArginiB_Sub014] | nM | 18.6 |
| AGAGUCAGACAAAAGUCUGGCUCAGCCGAAGGAGCGUCCGAAAGGACAGGUAGGUCGCGGUUCCAUGAGGAUCACCCAUGGUCCU [ArgAS 28 #OpenEnded #AlternativeMS2] | nM | 85.1 |
| AAUAUAAUAUAAAUAAUAAUAAUAUCUGAUACCAGACUCUCAUGUGUCCCUUGGCAGCAGUAACAUGAGGAUCACCCAUGUAAUA [JR_Nu_SSTheophyA_Sub027] | nM | 46.7 |
| UAUGCACAUGAGGAUCACCCAUGUAUGGAAGGAGCGGUGAAUAAACCAGGUAGGUCGCCAUGGUGAGGAUCAUCUAUGUAAUCGU [Exclusion - Arginine A (Freestyle 6)] | nM | 125 |
